# Target entity: human IL-6 (human, UniProt P05231 30-212)
# Sequence (P05231 30-212 limits assumed): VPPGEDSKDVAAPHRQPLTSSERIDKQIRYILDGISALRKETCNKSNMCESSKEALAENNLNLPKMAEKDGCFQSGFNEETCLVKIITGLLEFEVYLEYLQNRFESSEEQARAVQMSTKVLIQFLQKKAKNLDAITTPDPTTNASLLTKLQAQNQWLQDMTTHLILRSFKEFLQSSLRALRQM
# Assay summary: SPR (Biacore), supernatant antibody on Protein A chip, IL-6 flowed, 37 C

Binder: anti-IL-6 antibody, heavy chain T63V, G66D / light chain M32L, M50D, N52S, M88Q (antibody, human IgG1, V domains shown, Human IgG1) VH: EVQLVESGGGLVQPGGSLRLSCAASGFTFSPFAMSWVRQAPGKGLEWVAKISPGGSWTYYSDVVTDRFTFSLDTSKSTAYLQMNSLRAEDTAVYYCARQLWGYYALDIWGQGTLVTVSS VL: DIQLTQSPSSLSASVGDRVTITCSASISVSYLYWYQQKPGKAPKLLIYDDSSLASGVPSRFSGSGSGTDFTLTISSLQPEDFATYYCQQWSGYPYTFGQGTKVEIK
kon [M⁻¹ s⁻¹]: 1.57e+06
--
Binder: anti-IL-6 antibody, heavy chain T63S, G66D / light chain M32L, M50D, N52S, M88Q (antibody, human IgG1, V domains shown, Human IgG1) VH: EVQLVESGGGLVQPGGSLRLSCAASGFTFSPFAMSWVRQAPGKGLEWVAKISPGGSWTYYSDSVTDRFTFSLDTSKSTAYLQMNSLRAEDTAVYYCARQLWGYYALDIWGQGTLVTVSS VL: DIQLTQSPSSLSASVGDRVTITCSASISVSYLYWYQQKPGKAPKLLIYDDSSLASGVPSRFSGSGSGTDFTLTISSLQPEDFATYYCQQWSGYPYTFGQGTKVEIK
kon [M⁻¹ s⁻¹]: 1.8e+06
--
Binder: anti-IL-6 antibody, heavy chain I51Y, G66D / light chain M32L, M50D, N52S, M88Q (antibody, human IgG1, V domains shown, Human IgG1) VH: EVQLVESGGGLVQPGGSLRLSCAASGFTFSPFAMSWVRQAPGKGLEWVAKYSPGGSWTYYSDTVTDRFTFSLDTSKSTAYLQMNSLRAEDTAVYYCARQLWGYYALDIWGQGTLVTVSS VL: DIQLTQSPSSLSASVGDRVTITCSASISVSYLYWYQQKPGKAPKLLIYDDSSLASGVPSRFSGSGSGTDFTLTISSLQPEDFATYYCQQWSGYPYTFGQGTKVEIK
kon [M⁻¹ s⁻¹]: 6.1e+06

These measurements were taken from patent US20240209076A1.
